SYSTEM_NAME: glucokinase (GK), residues 12-465 of the human enzyme (Homo sapiens)
Construct: I.D. No. 1 corresponds to residues 12-465 of glucokinase
ASSAY_INFO: Enzymatic glucokinase activity assay (KinaseGlo luminescence, ATP consumption)
APPLIED_CONDITIONS: GK activation; 5 μM ATP, 5 mM Glucose; Kact = concentration giving 50% of the maximal increase in GK activity; read-out: pKact
pEC50: −log10 of the molar value.
pEC50 values for the compounds below.

Consider the worked cases shown below.
O=C(Nc1nccs1)[C@H](CC1CCCCC1)N1CCN(S(=O)(=O)c2ccc(Cl)cc2)CC1=O: 5.90 to 6.10
COC(=O)c1c(C)oc(C)c1S(=O)(=O)N1CCN([C@@H](CC2CCCCC2)C(=O)Nc2nccs2)C(=O)C1: ≤ 5.50
O=C(Nc1nccs1)[C@H](CC1CCCCC1)N1CCN(C(=S)NCCN2CCOCC2)CC1=O: 5.60 to 5.80
CCc1ccc(S(=O)(=O)N2CCN([C@@H](CC3CCCCC3)C(=O)Nc3nccs3)C(=O)C2)cc1: 5.90 to 6.10
Cc1c(S(=O)(=O)N2CCN([C@@H](CC3CCCCC3)C(=O)Nc3nccs3)C(=O)C2)cnn1-c1ccccc1: 5.60 to 5.80
O=C(Nc1ncc(Cl)s1)C(CC1CCOCC1)N1CCN(S(=O)(=O)c2ccc(F)cc2)CC1=O (centres unmarked): 5.90 to 6.10
COc1ccc(OC)c(S(=O)(=O)N2CCN([C@@H](CC3CCCCC3)C(=O)Nc3nccs3)C(=O)C2)c1: 5.90 to 6.10
CC(C)Oc1ccc(S(=O)(=O)N2CCN([C@@H](CC3CCCCC3)C(=O)Nc3nccs3)C(=O)C2)cc1: ≥ 6.20

Query block: Note pEC50 for the compound shown: `N#Cc1ccc(NC(=O)N2CCN([C@@H](CC3CCCCC3)C(=O)Nc3nccs3)C(=O)C2)cc1`
Result block: ≤ 5.50

Query block: Note pEC50 for the compound shown: `COc1ccc(S(=O)(=O)N2CCN([C@@H](CC3CCCCC3)C(=O)Nc3nccs3)C(=O)C2)cc1F`
Result block: 5.90 to 6.10

Query block: Note pEC50 for the compound shown: `COc1ccc(CNC(=S)N2CCN([C@@H](CC3CCCCC3)C(=O)Nc3nccs3)C(=O)C2)cc1`
Result block: 5.60 to 5.80

Query block: Note pEC50 for the compound shown: `Cc1ccc(S(=O)(=O)N2CCN([C@@H](CC3CCCCC3)C(=O)Nc3nccs3)C(=O)C2)cc1`
Result block: 5.60 to 5.80

Query block: Note pEC50 for the compound shown: `O=C(Nc1nccs1)[C@H](CC1CCCCC1)N1CCN(C(=S)NCCCN2CCOCC2)CC1=O`
Result block: 5.60 to 5.80

Query block: Note pEC50 for the compound shown: `COC(=O)c1cc(S(=O)(=O)N2CCN([C@@H](CC3CCCCC3)C(=O)Nc3nccs3)C(=O)C2)oc1C`
Result block: 5.90 to 6.10

Query block: Note pEC50 for the compound shown: `O=C(Nc1nccs1)[C@H](CC1CCCCC1)N1CCN(C(=S)Nc2ccccc2OC(F)(F)F)CC1=O`
Result block: 5.90 to 6.10

Query block: Note pEC50 for the compound shown: `Cc1ccc2sc(S(=O)(=O)N3CCN([C@@H](CC4CCCCC4)C(=O)Nc4nccs4)C(=O)C3)cc2c1`
Result block: 5.90 to 6.10

Query block: Note pEC50 for the compound shown: `CC(=O)c1ccc(S(=O)(=O)N2CCN([C@@H](CC3CCCCC3)C(=O)Nc3nccs3)C(=O)C2)cc1`
Result block: ≤ 5.50

Query block: Note pEC50 for the compound shown: `O=C(Nc1nccs1)[C@H](CC1CCCCC1)N1CCN(S(=O)(=O)c2ccc(F)c(F)c2)CC1=O`
Result block: ≥ 6.20

* * *

SYSTEM_NAME: glucokinase (GK), residues 12-465 of the human enzyme (Homo sapiens)
Construct: I.D. No. 1 corresponds to residues 12-465 of glucokinase; made in house; host or cells: E. coli DH10b-Tlr
ASSAY_INFO: Enzymatic glucokinase activity assay (KinaseGlo luminescence, ATP consumption)
Assay type: biochemical
APPLIED_CONDITIONS: calculated maximal gain in GK enzyme activity at a saturating concentration of the compound; 5 μM ATP, 5 mM Glucose; read-out: % ACTmax
Emax values for the molecules below.

Consider the worked cases shown below.
O=C(Nc1nccs1)[C@H](CC1CCCCC1)N1CCN(C(=S)Nc2ccc(Cl)c(Cl)c2)CC1=O: 74.1 to 97%
N#Cc1ccc(NC(=S)N2CCN([C@@H](CC3CCCCC3)C(=O)Nc3nccs3)C(=O)C2)cc1: 97.1 to 107%
O=C(Nc1nccs1)[C@H](CC1CCCCC1)N1CCN(S(=O)(=O)c2ccc3ccccc3c2)CC1=O: ≤ 74%
O=C(Nc1nccs1)[C@H](CC1CCCCC1)N1CCN(S(=O)(=O)c2cc(F)ccc2F)CC1=O: 108 to 119%
Cc1ccc([N+](=O)[O-])cc1S(=O)(=O)N1CCN([C@@H](CC2CCCCC2)C(=O)Nc2nccs2)C(=O)C1: 74.1 to 97%

Query block: Note Emax for the molecule shown: `Cc1c(Cl)cc(F)cc1S(=O)(=O)N1CCN([C@@H](CC2CCCCC2)C(=O)Nc2nccs2)C(=O)C1`
Result block: 74.1 to 97%

Query block: Note Emax for the molecule shown: `O=C(Nc1nccs1)[C@H](CC1CCCCC1)N1CCN(S(=O)(=O)c2ccc(Br)s2)CC1=O`
Result block: 108 to 119%

* * *

Emax values for the compounds below.
SYSTEM_NAME: glucokinase (GK), residues 12-465 of the human enzyme (Homo sapiens, UniProt P35557)
Construct: I.D. No. 1 corresponds to residues 12-465 of glucokinase; made in house; host or cells: E. coli DH10b-Tlr
ASSAY_INFO: Enzymatic glucokinase activity assay (KinaseGlo luminescence, ATP consumption)
Format: biochemical
APPLIED_CONDITIONS: calculated maximal gain in GK enzyme activity at a saturating concentration of the compound; 5 μM ATP, 5 mM Glucose; read-out: % ACTmax

Cc1nn(C)c(Cl)c1S(=O)(=O)N1CCN([C@@H](CC2CCCCC2)C(=O)Nc2nccs2)C(=O)C1: 97.1 to 107%
CN1CCOc2cc(S(=O)(=O)N3CCN([C@@H](CC4CCCCC4)C(=O)Nc4nccs4)C(=O)C3)ccc21: 97.1 to 107%
N#Cc1cc(S(=O)(=O)N2CCN([C@@H](CC3CCCCC3)C(=O)Nc3nccs3)C(=O)C2)ccc1F: 74.1 to 97%

Query block: Note Emax for the compound shown: `O=C(Nc1nccs1)[C@H](CC1CCCCC1)N1CCN(S(=O)(=O)c2cccc(OC(F)F)c2)CC1=O`
Result block: 108 to 119%

* * *

pEC50 values for the molecules below.
SYSTEM_NAME: glucokinase (GK), residues 12-465 of the human enzyme (Homo sapiens, UniProt P35557)
Construct: I.D. No. 1 corresponds to residues 12-465 of glucokinase
ASSAY_INFO: Enzymatic glucokinase activity assay (KinaseGlo luminescence, ATP consumption)
APPLIED_CONDITIONS: GK activation; 5 μM ATP, 5 mM Glucose; Kact = concentration giving 50% of the maximal increase in GK activity; read-out: pKact
pEC50: −log10 of the molar value.

CCn1cc(S(=O)(=O)N2CCN([C@@H](CC3CCCCC3)C(=O)Nc3nccs3)C(=O)C2)cn1: ≤ 5.50
Cc1c(Cl)cccc1S(=O)(=O)N1CCN([C@@H](CC2CCCCC2)C(=O)Nc2nccs2)C(=O)C1: 5.60 to 5.80
Cn1cc(S(=O)(=O)N2CCN([C@@H](CC3CCCCC3)C(=O)Nc3nccs3)C(=O)C2)c(C(F)(F)F)n1: 5.60 to 5.80

From here, focus on the item given below.
Query block: Note pEC50 for the molecule shown: `O=C(Nc1ncc(F)s1)[C@H](CC1CCOCC1)N1CCN(S(=O)(=O)c2cccc(F)c2)CC1=O`
Result block: ≥ 6.20

* * *

Emax values for the molecules below.
SYSTEM_NAME: glucokinase (GK), residues 12-465 of the human enzyme (Homo sapiens)
Construct: I.D. No. 1 corresponds to residues 12-465 of glucokinase; made in house; host or cells: E. coli DH10b-Tlr
Sequence (P35557 with tags, fused parts or gaps isoform P35557-2): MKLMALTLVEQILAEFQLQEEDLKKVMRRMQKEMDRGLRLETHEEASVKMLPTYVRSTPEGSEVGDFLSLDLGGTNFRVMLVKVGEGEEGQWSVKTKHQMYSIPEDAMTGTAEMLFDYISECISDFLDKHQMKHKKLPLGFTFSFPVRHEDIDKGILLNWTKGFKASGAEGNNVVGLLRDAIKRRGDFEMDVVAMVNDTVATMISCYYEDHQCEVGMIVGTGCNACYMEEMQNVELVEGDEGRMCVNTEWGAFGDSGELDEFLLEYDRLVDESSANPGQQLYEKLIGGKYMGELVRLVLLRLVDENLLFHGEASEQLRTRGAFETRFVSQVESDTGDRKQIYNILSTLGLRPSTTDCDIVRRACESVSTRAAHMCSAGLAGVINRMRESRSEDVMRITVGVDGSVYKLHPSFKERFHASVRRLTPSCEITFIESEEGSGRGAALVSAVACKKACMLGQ
ASSAY_INFO: Enzymatic glucokinase activity assay (KinaseGlo luminescence, ATP consumption)
Assay type: biochemical
APPLIED_CONDITIONS: calculated maximal gain in GK enzyme activity at a saturating concentration of the compound; 5 μM ATP, 5 mM Glucose; read-out: % ACTmax

Consider the worked cases shown below.
O=C(Nc1nccs1)[C@H](CC1CCCCC1)N1CCN(S(=O)(=O)Cc2ccc(Cl)cc2)CC1=O: 97.1 to 107%
COc1ccc(S(=O)(=O)N2CCN([C@@H](CC3CCCCC3)C(=O)Nc3nccs3)C(=O)C2)cc1: 97.1 to 107%
O=C(Nc1nccs1)[C@H](CC1CCCCC1)N1CCN(S(=O)(=O)c2ccc(C(F)(F)F)cc2)CC1=O: ≤ 74%
O=C(Nc1nccs1)[C@H](CC1CCCCC1)N1CCN(S(=O)(=O)c2ccc(Cl)c(Cl)c2Cl)CC1=O: ≤ 74%
O=C(Nc1nccs1)[C@H](CC1CCCCC1)N1CCN(S(=O)(=O)c2ccc(OC(F)F)cc2)CC1=O: 74.1 to 97%

Query block: Note Emax for the molecule shown: `O=C(Nc1nccs1)[C@H](CC1CCCCC1)N1CCN(S(=O)(=O)c2ccc(F)cc2F)CC1=O`
Result block: 108 to 119%

Query block: Note Emax for the molecule shown: `Cc1n[nH]c(C)c1S(=O)(=O)N1CCN([C@@H](CC2CCCCC2)C(=O)Nc2nccs2)C(=O)C1`
Result block: ≥ 119%
